Target: UniProt P10826
Experiment: Transactivation of RARβ relative to ATRA
Format: biochemical
Conditions: both compounds at 10000 nM, read-out: Transactivation EC50 % MAX, RARβ
observed property: % transactivation relative to ATRA at 10 µM (%)
Report the figure in % without appending any unit label.

For orientation, consider the following solved cases.
compound=CCCCCCCOc1cc2c(cc1/C(C)=C/C=C/C(C)=C/C(=O)O)C(C)(C)CCCS2(=O)=O unit_spec=% measurement=20
compound=CCCCCCOc1cc2c(cc1/C(C)=C/C=C/C(C)=C/C(=O)O)C(C)(C)CCCS2(=O)=O unit_spec=% measurement=32
compound=CCCCCCCOc1cc2c(cc1/C(C)=C/c1ccc(C(=O)O)cc1)C(C)(C)CCCS2(=O)=O unit_spec=% measurement=7

// moving on: another record for % transactivation relative to ATRA at 10 µM
Task item: Quick check: % transactivation relative to ATRA at 10 µM of CCCCCCCOc1cc2c(cc1/C(C)=C/C=C/C(C)=C/C(=O)O)C(C)(C)CCS2(=O)=O [drawing 4] ?
Reply: 14

* * *

Biological target: RARγ (Homo sapiens)
Experiment: Transactivation of RARγ relative to ATRA
Assay type: biochemical
Conditions: both compounds at 10000 nM, read-out: Transactivation EC50 % MAX, RARγ
Entries annotated with measured Emax at 10 µM
Express your answer in %, writing the number without its unit.

Below: 3 compounds and their reported Emax at 10 µM.
compound=CCCCCCCOc1cc2c(cc1\C(C)=C/C=C/C(C)=C/C(=O)O)C(C)(C)CCS2(=O)=O unit_spec=% measurement=20
compound=CCCCCCCOc1cc2c(cc1/C(C)=C/C=C/C(C)=C/C(=O)O)C(C)(C)CCS2 unit_spec=% measurement=36
compound=CCCCCCCCc1cc2c(cc1/C(C)=C/C=C/C(C)=C/C(=O)O)C(C)(C)CCCS2(=O)=O unit_spec=% measurement=33

Now, please, on to the next compound.
Task item: Emax at 10 µM lookup needed for CCCCCCCOc1cc2c(cc1-c1ccc3cc(C(=O)O)ccc3c1)C(C)(C)CCS2(=O)=O , thanks.
Reply: 14

* * *

Target: RARβ (Homo sapiens)
Assay: Transactivation of RARβ relative to ATRA
Format: biochemical
Settings: both compounds at 10000 nM, read-out: Transactivation EC50 % MAX, RARβ
observed property: % transactivation relative to ATRA at 10 µM (%)
// note: answer is a bare numeric in %

Use these answered entries as a reference point.
compound="CCCCCCCOc1cc2c(cc1/C(C)=C/c1ccc(C(=O)O)cc1)C(C)(C)CCS2(=O)=O [drawing 3]" measurement=3
compound=CCCCCCCOc1cc2c(cc1/C(C)=C/c1ccc(C(=O)O)cc1)C(C)(C)CS2(=O)=O measurement=22

Note: attention shifts to another entry.
Task item: Which % transactivation relative to ATRA at 10 µM value belongs to CCCCCCCOc1cc2c(cc1/C(C)=C/c1ccc(C(=O)O)cc1)C(C)CCCS2(=O)=O (stereo not drawn) ?
Reply: 7

* * *

Target: RARβ (Homo sapiens)
Sequence (P10826 1-455): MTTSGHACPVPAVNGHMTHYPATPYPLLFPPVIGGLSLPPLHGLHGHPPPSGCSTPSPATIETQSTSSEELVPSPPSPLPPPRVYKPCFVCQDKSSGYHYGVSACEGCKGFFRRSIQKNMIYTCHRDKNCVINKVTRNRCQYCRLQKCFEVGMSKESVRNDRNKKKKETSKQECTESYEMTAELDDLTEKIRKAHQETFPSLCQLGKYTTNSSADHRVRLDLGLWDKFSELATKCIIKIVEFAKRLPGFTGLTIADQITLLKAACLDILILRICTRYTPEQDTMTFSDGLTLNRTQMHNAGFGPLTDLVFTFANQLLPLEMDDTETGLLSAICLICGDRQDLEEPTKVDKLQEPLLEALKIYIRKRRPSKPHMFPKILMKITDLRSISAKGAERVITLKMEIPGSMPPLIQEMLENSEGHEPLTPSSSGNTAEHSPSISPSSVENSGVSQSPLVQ
Test: Transactivation of RARβ relative to ATRA
Type: biochemical
Conditions: both compounds at 10000 nM, read-out: Transactivation EC50 % MAX, RARβ
Measured % transactivation relative to ATRA at 10 µM of individual entries
Note: unit % is implicit; provide only the numeric part.

Consider the worked cases shown below.
compound=CCCCCCOc1cc2c(cc1/C(C)=C/c1ccc(C(=O)O)cc1)C(C)(C)CCCS2(=O)=O measurement=37
compound="CCCCCCCOc1cc2c(cc1/C(C)=C/C=C/C(C)=C/C(=O)O)C(C)(C)CC[S+]2[O-] (stereo not shown)" measurement=10
compound=CCCCCCCCc1cc2c(cc1/C(C)=C/c1ccc(C(=O)O)cc1)C(C)(C)CCS2(=O)=O measurement=15

Task item: Recorded % transactivation relative to ATRA at 10 µM of CCCCCCCCc1cc2c(cc1/C(C)=C/C=C/C(C)=C/C(=O)O)C(C)(C)CCCS2(=O)=O , please.
Reply: 35

* * *

Emax at 10 µM for assorted compounds
Molecular target: RARα (Homo sapiens, UniProt P10276)
Sequence (P10276 whole entry): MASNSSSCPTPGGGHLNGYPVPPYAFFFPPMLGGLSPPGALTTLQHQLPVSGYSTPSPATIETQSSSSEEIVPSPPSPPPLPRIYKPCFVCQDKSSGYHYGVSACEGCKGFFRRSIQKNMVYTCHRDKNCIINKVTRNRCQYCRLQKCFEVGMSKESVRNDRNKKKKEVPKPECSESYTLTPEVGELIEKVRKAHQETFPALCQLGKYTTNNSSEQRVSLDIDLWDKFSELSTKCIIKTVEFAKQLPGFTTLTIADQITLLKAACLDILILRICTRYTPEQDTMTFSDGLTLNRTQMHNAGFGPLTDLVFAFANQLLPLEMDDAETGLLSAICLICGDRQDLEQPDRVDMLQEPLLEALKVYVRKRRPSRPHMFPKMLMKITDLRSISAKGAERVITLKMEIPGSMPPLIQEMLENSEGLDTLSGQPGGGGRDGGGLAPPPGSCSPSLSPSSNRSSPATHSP
Assay: Transactivation of RARα relative to ATRA
Format: biochemical
Conditions: both compounds at 10000 nM, read-out: Transactivation EC50 % MAX, RARα

Previously resolved entries follow.
mol_smiles=CCCCCCOc1cc2c(cc1/C(C)=C/c1ccc(C(=O)O)cc1)C(C)(C)CCCS2(=O)=O measurement=14%
mol_smiles=CCCCCCCOc1cc2c(cc1-c1ccc3cc(C(=O)O)ccc3c1)C(C)(C)CCS2(=O)=O measurement=8%
mol_smiles=CCCCCCCOc1cc2c(cc1C#Cc1ccc(C(=O)O)cc1)C(C)(C)CCS2(=O)=O measurement=18%
mol_smiles=CCCCCCCCc1cc2c(cc1/C(C)=C/c1ccc(C(=O)O)cc1)C(C)(C)CCS2(=O)=O measurement=16%

Let us move to another entry and its Emax at 10 µM.
Task item: Data request, read-out Emax at 10 µM, for CCCCCCCCOc1cc2c(cc1/C(C)=C/c1ccc(C(=O)O)cc1)C(C)(C)CCCS2(=O)=O
Reply: 8%

* * *

Target: RARα (Homo sapiens)
pIC50: −log10 of the molar value.
Threshold rule: pIC50 greater than or equal to 7 is rule met; below that, rule not met.

compound=CCCCCCOc1cc2c(cc1/C(C)=C/C=C/C(C)=C/C(=O)O)C(C)(C)CCCS2(=O)=O answer_label="rule not met"

Task item: I'd appreciate it if you could say whether CCCCCCOc1cc2c(cc1/C(C)=C/c1ccc(C(=O)O)cc1)C(C)(C)CCCS2(=O)=O has pIC50 at least equal to 7.
Reply: rule not met

Task item: Reported pIC50 at or above 7? CCCCCCCOc1cc2c(cc1/C(C)=C/C=C/C(C)=C/C(=O)O)C(C)(C)CCS2(=O)=O [drawing 4]
Reply: rule met

* * *

Target chain: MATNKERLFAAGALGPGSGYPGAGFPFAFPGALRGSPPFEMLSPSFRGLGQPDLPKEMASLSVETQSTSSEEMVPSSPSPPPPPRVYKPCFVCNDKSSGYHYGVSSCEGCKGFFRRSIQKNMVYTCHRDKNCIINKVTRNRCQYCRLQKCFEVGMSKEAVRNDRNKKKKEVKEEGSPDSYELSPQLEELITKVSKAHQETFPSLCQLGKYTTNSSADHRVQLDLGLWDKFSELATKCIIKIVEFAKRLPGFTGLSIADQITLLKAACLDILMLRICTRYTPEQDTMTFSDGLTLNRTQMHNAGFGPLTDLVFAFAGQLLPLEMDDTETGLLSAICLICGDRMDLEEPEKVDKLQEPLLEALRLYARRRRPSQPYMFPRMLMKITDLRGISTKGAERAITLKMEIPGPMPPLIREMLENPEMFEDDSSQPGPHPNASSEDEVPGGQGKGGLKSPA
As shown below, each of these molecules has a reported IC50 value.
The reply should be a number in nM, with the unit left off.

molecule="CCCCCCCOc1cc2c(cc1/C(C)=C/c1ccc(C(=O)O)cc1)C(C)(C)CCS2(=O)=O [drawing 3]" measurement=4200
molecule=CCCCCCCCc1cc2c(cc1/C(C)=C/c1ccc(C(=O)O)cc1)C(C)(C)CCCS2(=O)=O measurement=1800

Task item: Requested read-out: IC50. Entry: CCCCCCOc1cc2c(cc1/C(C)=C/C=C/C(C)=C/C(=O)O)C(C)(C)CCCS2(=O)=O
Reply: 1300

Task item: Endpoint output: IC50 of CCCCCCCOc1cc2c(cc1/C(C)=C/C=C/C(C)=C/C(=O)O)C(C)(C)CCS2(=O)=O [drawing 4] . Value?
Reply: 2400

Task item: // query IC50 value for entry CCCCCCCOc1cc2c(cc1/C(C)=C/c1ccc(C(=O)O)cc1)C(C)CCCS2(=O)=O (stereo not shown)
Reply: 3000

Task item: Entry CCCCCCCOc1cc2c(cc1C#Cc1ccc(C(=O)O)cc1)C(C)(C)CCS2(=O)=O : reported IC50 = ?
Reply: 2900

Task item: Can you share its IC50? I mean this molecule: CCCCCCCCc1cc2c(cc1/C(C)=C/C=C/C(C)=C/C(=O)O)C(C)(C)CCCS2(=O)=O
Reply: 1000
